Tested on: ATPase activity endogenous to L929 cell lysate
Assay: Detergent inhibition of ATPase endogenous to L929 cell lysate (ATP remaining by luciferase luminescence, 22° C.)
Type: biochemical
Settings: 0.05% detergent, 222 min
Could you please report measured Average Relative Light Unit Values for the items listed next?
Numbers only, in rlu.

Observe how each entry below is paired with its result.
[[record]]
molecule = "CCCCCCCCCCCC[N+](C)(C)CCCS(=O)(=O)[O-]"
parameter_measured = "Average Relative Light Unit Values"
reported_value = 465.03

[[record]]
molecule = "C[C@H](CCC(=O)NCCC[N+](C)(C)CC(O)CS(=O)(=O)[O-])[C@H]1CC[C@H]2[C@@H]3[C@H](O)C[C@@H]4C[C@H](O)CC[C@]4(C)[C@H]3C[C@H](O)[C@]12C (stereo partly drawn)"
parameter_measured = "Average Relative Light Unit Values"
reported_value = 480.09


Here are 5 molecules. What values of Average Relative Light Unit Values were reported for them?
1. C[C@H](CCC(=O)NCCC[N+](C)(C)CCCS(=O)(=O)[O-])[C@H]1CC[C@H]2[C@@H]3[C@H](O)C[C@@H]4C[C@H](O)CC[C@]4(C)[C@H]3C[C@H](O)[C@]12C
2. CCCCCCCCCCCC[N+](C)(C)Cc1ccccc1.[Br-] [BDDABr, Benzyldimethyldodecylammonium bromide]
3. C[C@H](CCC(=O)N(CCCNC(=O)[C@H](O)[C@@H](O)[C@H](O)[C@H](O)CO)CCCNC(=O)[C@H](O)[C@@H](O)[C@H](O)[C@H](O)CO)[C@H]1CC[C@H]2[C@@H]3[C@H](O)C[C@@H]4C[C@H](O)CC[C@]4(C)[C@H]3C[C@H](O)[C@]12C [BIGCHAP, N,N-bis(3-D-Gluconamidopropyl)cholamide]
4. CCCCCCCCCCCCCCCC[N+](C)(C)C.[Br-] [CTAB, Cetyltrimethylammonium bromide]
5. CCCCCCCCCCCCOS(=O)(=O)[O-].[Na+] [SDS, Sodium dodecyl sulfate]

1: 500.80; 2: 1680.16; 3: 487.72; 4: 1437.67; 5: 921.86

Here are 2 molecules. What values of Average Relative Light Unit Values were reported for them?
1. C[C@H](CCC(=O)[O-])[C@H]1CC[C@H]2[C@@H]3CC[C@@H]4C[C@H](O)CC[C@]4(C)[C@H]3C[C@H](O)[C@]12C.[Na+] [Deoxycholate, sodium deoxycholate]
2. CCCCCCCCCCCC[N+](C)(C)C.[Br-] [DTAB, dodecyltrimethylammonium bromide]

1: 375.74; 2: 943.40

---

System: ATPase activity endogenous to L929 cell lysate
Assay: Detergent inhibition of ATPase endogenous to L929 cell lysate (ATP remaining by luciferase luminescence, 22° C.)
Format: biochemical
Settings: 0.1% detergent, 169 min
Description: […]
Quick rule: Average Relative Light Unit Values of at least 1000 rlu means condition met, below that means condition not met.

Please review the entries below; each comes with its answer.
[[record]]
molecule = "C[C@H](CCC(=O)NCCC[N+](C)(C)CCCS(=O)(=O)[O-])[C@H]1CC[C@H]2[C@@H]3[C@H](O)C[C@@H]4C[C@H](O)CC[C@]4(C)[C@H]3C[C@H](O)[C@]12C"
assigned_label = "condition met"

[[record]]
molecule = "CCCCCCCCCCCC[N+](C)(C)CCCS(=O)(=O)[O-]"
assigned_label = "condition met"

[[record]]
molecule = "CCCCCCCCCCCCOS(=O)(=O)[O-].[Na+] [SDS, Sodium dodecyl sulfate]"
assigned_label = "condition not met"

[[record]]
molecule = "CCCCCCCCCCCC[N+](C)(C)C.[Br-] [DTAB, dodecyltrimethylammonium bromide]"
assigned_label = "condition met"

[[record]]
molecule = "CCCCCCCCCCCCCCCC[N+](C)(C)C.[Br-] [CTAB, Cetyltrimethylammonium bromide]"
assigned_label = "condition met"


Check if Average Relative Light Unit Values >= 1000 rlu (inclusive). Item: C[C@H](CCC(=O)N(CCCNC(=O)[C@H](O)[C@@H](O)[C@H](O)[C@H](O)CO)CCCNC(=O)[C@H](O)[C@@H](O)[C@H](O)[C@H](O)CO)[C@H]1CC[C@H]2[C@@H]3[C@H](O)C[C@@H]4C[C@H](O)CC[C@]4(C)[C@H]3C[C@H](O)[C@]12C [BIGCHAP, N,N-bis(3-D-Gluconamidopropyl)cholamide] condition met

---

Tested on: ATPase activity endogenous to L929 cell lysate
Experiment: Detergent inhibition of ATPase endogenous to L929 cell lysate (ATP remaining by luciferase luminescence, 22° C.)
Assay type: biochemical
Settings: 0.5% detergent, 260 min
parameter.measured: Percent ATP Remaining (%)
One number for each entry, in %.

Here are 5 molecules. What values of Percent ATP Remaining were reported for them?
1. C[C@H](CCC(=O)N(CCCNC(=O)[C@H](O)[C@@H](O)[C@H](O)[C@H](O)CO)CCCNC(=O)[C@H](O)[C@@H](O)[C@H](O)[C@H](O)CO)[C@H]1CC[C@H]2[C@@H]3[C@H](O)C[C@@H]4C[C@H](O)CC[C@]4(C)[C@H]3C[C@H](O)[C@]12C [BIGCHAP, N,N-bis(3-D-Gluconamidopropyl)cholamide]
2. C[C@H](CCC(=O)NCCC[N+](C)(C)CC(O)CS(=O)(=O)[O-])[C@H]1CC[C@H]2[C@@H]3[C@H](O)C[C@@H]4C[C@H](O)CC[C@]4(C)[C@H]3C[C@H](O)[C@]12C (stereo partly drawn)
3. C[C@H](CCC(=O)[O-])[C@H]1CC[C@H]2[C@@H]3CC[C@@H]4C[C@H](O)CC[C@]4(C)[C@H]3C[C@H](O)[C@]12C.[Na+] [Deoxycholate, sodium deoxycholate]
4. C[C@H](CCC(=O)NCCC[N+](C)(C)CCCS(=O)(=O)[O-])[C@H]1CC[C@H]2[C@@H]3[C@H](O)C[C@@H]4C[C@H](O)CC[C@]4(C)[C@H]3C[C@H](O)[C@]12C
5. CCCCCCCCCCCC[N+](C)(C)Cc1ccccc1.[Br-] [BDDABr, Benzyldimethyldodecylammonium bromide]

9.1
12.4
57.9
12.3
82.6

Please state recorded Percent ATP Remaining (tested on ATPase activity endogenous to L929 cell lysate) of CCCCCCCCCCCC[N+](C)(C)CCCS(=O)(=O)[O-] 6.0

---

Could you please report measured Average Relative Light Unit Values for the items listed next?
Tested on: ATPase activity endogenous to L929 cell lysate
Test: Detergent inhibition of ATPase endogenous to L929 cell lysate (ATP remaining by luciferase luminescence, 22° C.)
Assay type: biochemical
Details: 0.5% detergent, 260 min
Give bare numbers, in rlu.

Observe how each entry below is paired with its result.
[[record]]
compound = "C[C@H](CCC(=O)[O-])[C@H]1CC[C@H]2[C@@H]3CC[C@@H]4C[C@H](O)CC[C@]4(C)[C@H]3C[C@H](O)[C@]12C.[Na+] [Deoxycholate, sodium deoxycholate]"
unit_of_measurement = "rlu"
reported_value = 1845.36

[[record]]
compound = "C[C@H](CCC(=O)NCCC[N+](C)(C)CCCS(=O)(=O)[O-])[C@H]1CC[C@H]2[C@@H]3[C@H](O)C[C@@H]4C[C@H](O)CC[C@]4(C)[C@H]3C[C@H](O)[C@]12C [CHAPS]"
unit_of_measurement = "rlu"
reported_value = 909.15


Next, consider the following compound.
If you can, please state the reported Average Relative Light Unit Values value of CCCCCCCCCCCCCCCC[N+](C)(C)C.[Br-] [CTAB, Cetyltrimethylammonium bromide] . 0.18

---

System: ATPase activity endogenous to L929 cell lysate
Assay: Detergent inhibition of ATPase endogenous to L929 cell lysate (ATP remaining by luciferase luminescence, 22° C.)
Assay type: biochemical
Parameters: key: slope with detergent / slope without; ≥1.0 = 100% activity, 0.5 = 50%
Settings: 0.50 percent detergent
parameter.measured: Relative ATPase Activity, slope det/slope lysate

Observe how each entry below is paired with its result.
[[record]]
compound = "C[C@H](CCC(=O)[O-])[C@H]1CC[C@H]2[C@@H]3CC[C@@H]4C[C@H](O)CC[C@]4(C)[C@H]3C[C@H](O)[C@]12C.[Na+] [Deoxycholate, sodium deoxycholate]"
reported_value = 0.158

[[record]]
compound = "CCCCCCCCCCCC[N+](C)(C)Cc1ccccc1.[Br-] [BDDABr, Benzyldimethyldodecylammonium bromide]"
reported_value = 0.064

[[record]]
compound = "C[C@H](CCC(=O)N(CCCNC(=O)[C@H](O)[C@@H](O)[C@H](O)[C@H](O)CO)CCCNC(=O)[C@H](O)[C@@H](O)[C@H](O)[C@H](O)CO)[C@H]1CC[C@H]2[C@@H]3[C@H](O)C[C@@H]4C[C@H](O)CC[C@]4(C)[C@H]3C[C@H](O)[C@]12C [BIGCHAP, N,N-bis(3-D-Gluconamidopropyl)cholamide]"
reported_value = 0.782

[[record]]
compound = "CCCCCCCCCCCC[N+](C)(C)C.[Br-] [DTAB, dodecyltrimethylammonium bromide]"
reported_value = 0.055

[[record]]
compound = "C[C@H](CCC(=O)NCCC[N+](C)(C)CCCS(=O)(=O)[O-])[C@H]1CC[C@H]2[C@@H]3[C@H](O)C[C@@H]4C[C@H](O)CC[C@]4(C)[C@H]3C[C@H](O)[C@]12C [CHAPS]"
reported_value = 0.688


Here are 2 compounds. What values of Relative ATPase Activity, slope det/slope lysate were reported for them?
1. C[C@H](CCC(=O)NCCC[N+](C)(C)CC(O)CS(=O)(=O)[O-])[C@H]1CC[C@H]2[C@@H]3[C@H](O)C[C@@H]4C[C@H](O)CC[C@]4(C)[C@H]3C[C@H](O)[C@]12C (stereo partly shown) [CHAPSO]
2. CCCCCCCCCCCC[N+](C)(C)CCCS(=O)(=O)[O-] [Sulfobetaine 3-10]

1. 0.685
2. 0.921
